- system-name: T1, huNav1.7α + β1-β2-β3 (human Nav1.7α co-expressed with human Navβ1, Navβ2 and Navβ3 on cells) (human)
- T1 construct: also called huNav1.7-beta1-beta2-beta3; CHO FlpIn huNav1.7α + β1-β2-β3
- test: binding FACS, CHO FlpIn cells
value-type: EC50

>  <binder>
F010302384 (VHH, also called F0103387G04(L11V, A12V, K33R, R39Q, S50Y, S56D, T60A, D72G, W78V, S79Y, T83R, V89L, N93R, D99S, N100cI)) VHH: EVQLVESGGGVVQPGGSLRLSCAASGPVFNINRMAWYRQAPGKQRELVAYVTPTGDISYADSVKGRFTISRGGSKRVYLQMNSLRPEDTALYYCRALLQPSSYSITRTYWGQGTLVTVSS

>  <result>
6.2 nM

$$$$
>  <binder>
F010302321 (VHH, also called F0103387G04(L11V, A12V, K33R, R39Q, S50Y, S56D, T60A, G73R, W78V, S79Y, T83R, V89L, N93R, S100R, N100cI)-FLAG3-HIS6) VHH: EVQLVESGGGVVQPGGSLRLSCAASGPVFNINRMAWYRQAPGKQRELVAYVTPTGDISYADSVKGRFTISRDRSKRVYLQMNSLRPEDTALYYCRALLQPDRYSITRTYWGQGTLVTVSS

>  <result>
7.9 nM

$$$$
>  <binder>
F010302327 (VHH, also called F0103387G04(L11V, A12V, K33R, R39Q, S50Y, S56D, T60A, G73A, W78V, S79Y, T83R, V89L, N93R, D99R)) VHH: EVQLVESGGGVVQPGGSLRLSCAASGPVFNINRMAWYRQAPGKQRELVAYVTPTGDISYADSVKGRFTISRDASKRVYLQMNSLRPEDTALYYCRALLQPRSYSNTRTYWGQGTLVTVSS

>  <result>
7 nM

$$$$
>  <binder>
F010301866 (VHH, also called F0103387G04(L11V, A12V, K33R, R39Q, S50Y, S56D, T60A, R76N, W78V, S79Y, T83R, V89L, N93R)) VHH: EVQLVESGGGVVQPGGSLRLSCAASGPVFNINRMAWYRQAPGKQRELVAYVTPTGDISYADSVKGRFTISRDGSKNVYLQMNSLRPEDTALYYCRALLQPDSYSNTRTYWGQGTLVTVSS

>  <result>
38 nM

$$$$
